# Tgt: FPR2 (Homo sapiens, UniProt P25090)
# Construct: expressed in transfected cells
# Sequence (P25090 whole entry): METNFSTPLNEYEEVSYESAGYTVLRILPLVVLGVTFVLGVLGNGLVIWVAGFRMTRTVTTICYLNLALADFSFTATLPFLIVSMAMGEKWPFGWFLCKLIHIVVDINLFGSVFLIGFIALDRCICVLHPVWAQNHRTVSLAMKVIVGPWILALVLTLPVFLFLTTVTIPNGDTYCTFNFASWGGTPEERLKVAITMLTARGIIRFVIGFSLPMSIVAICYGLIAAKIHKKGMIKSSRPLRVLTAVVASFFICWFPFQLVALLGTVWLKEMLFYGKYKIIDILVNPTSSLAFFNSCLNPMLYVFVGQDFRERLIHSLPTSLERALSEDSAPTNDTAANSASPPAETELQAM
# Test Summary: Compound-induced calcium activity (FLIPR Tetra) in CHO-Gα16 cells stably expressing FPR2
# Assay type: cell-based
# Applied Conditions: efficacy value in brackets, read-out: FPR2 Ga16-CHO (% eff)
Measured Attribute: Emax (%)

molecule="CC(C)CC(CNC(=O)Nc1ccc(C(F)(F)F)cc1)C(=O)O (stereo not drawn)" tgt="FPR2 (Homo sapiens, UniProt P25090)" measured_attribute=Emax endpoint_value=92

(P) CC(C)CC(CNC(=O)Nc1ccc(Br)cc1)C(=O)NCC(=O)O (stereo not drawn)
(Q) COC(=O)C(CNC(=O)Nc1ccc(OC(F)(F)F)cc1)CC(C)C (stereo not drawn)
Query string: Looking at recorded values for Emax, does P or Q come in lower? Returns: label corresponding to the selected item.
Result string: P

###

# Tgt: FPR1 (Homo sapiens, UniProt P21462)
# Construct: expressed in transfected cells
# Sequence (P21462 1-350): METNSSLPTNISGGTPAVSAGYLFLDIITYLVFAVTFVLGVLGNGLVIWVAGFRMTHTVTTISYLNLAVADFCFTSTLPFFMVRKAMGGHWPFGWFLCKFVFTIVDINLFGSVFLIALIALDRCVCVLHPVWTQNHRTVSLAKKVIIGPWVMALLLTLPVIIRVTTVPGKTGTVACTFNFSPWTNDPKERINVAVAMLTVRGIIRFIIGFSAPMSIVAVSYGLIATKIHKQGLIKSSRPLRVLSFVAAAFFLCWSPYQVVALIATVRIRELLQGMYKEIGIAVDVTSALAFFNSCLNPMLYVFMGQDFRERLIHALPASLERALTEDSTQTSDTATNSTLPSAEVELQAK
# Test Summary: Compound-induced calcium activity (FLIPR Tetra) in CHO-Gα16 cells stably expressing FPR1
# Assay type: cell-based
# Applied Conditions: ratio of the EC50 for agonizing FPR2 to the EC50 for agonizing FPR1
Measured Attribute: Ratio FPR2:FPR1 (EC50)

compound="CC(C)CC(CNC(=O)Nc1ccc(Br)cc1F)C(=O)O (stereo not shown)" measured_attribute="Ratio FPR2:FPR1 (EC50)" endpoint_value=17
compound="CC(C)CC(CNC(=O)CNC(=O)Nc1ccc(Br)cc1)C(=O)O (stereo not shown)" measured_attribute="Ratio FPR2:FPR1 (EC50)" endpoint_value=88
compound="O=C(Nc1ccc(Br)cc1)N[C@@H]1CCCC[C@H]1C(=O)O (relative stereo)" measured_attribute="Ratio FPR2:FPR1 (EC50)" endpoint_value=5.2

(I) CC(C)CC(CNC(=O)Nc1ccc(Br)cc1)C(=O)NCc1nnn[nH]1 (stereo not shown)
(II) O=C(NCC(Cc1ccccc1)C(=O)O)Nc1ccc(Br)cc1 (stereo not shown)
(III) COC(=O)C(CNC(=O)Nc1ccc(C(F)(F)F)cc1)CC(C)C (stereo not shown)
(IV) O=C(Nc1ccc(Br)cc1)N[C@H]1CCCC[C@H]1C(=O)O (relative stereo)
(V) O=C(Nc1ccc(Br)cc1)NC1CCCCCCC1C(=O)O (stereo not shown)
Query string: Please order the records by their reported Ratio FPR2:FPR1 (EC50), lowest number first. Present the labels in the sequence the task asks for.
Result string: III, V, IV, II, I
(III: 0.21, V: 1.6, IV: 3.4, II: 5.2, I: 10)

###

# Tgt: FPR1 (Homo sapiens)
# Sequence (P21462 1-350): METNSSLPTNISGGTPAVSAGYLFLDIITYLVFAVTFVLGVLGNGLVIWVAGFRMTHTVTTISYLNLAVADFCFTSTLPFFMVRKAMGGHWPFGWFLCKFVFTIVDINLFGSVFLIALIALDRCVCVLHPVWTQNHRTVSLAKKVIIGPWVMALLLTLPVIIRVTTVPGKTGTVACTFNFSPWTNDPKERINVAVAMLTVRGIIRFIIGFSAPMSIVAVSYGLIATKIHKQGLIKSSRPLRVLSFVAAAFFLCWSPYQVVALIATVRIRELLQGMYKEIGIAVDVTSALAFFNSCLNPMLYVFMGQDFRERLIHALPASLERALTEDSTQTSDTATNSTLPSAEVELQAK
# Test Summary: Compound-induced calcium activity (FLIPR Tetra) in CHO-Gα16 cells stably expressing FPR1
# Applied Conditions: CHO-Gα16 cells stably expressing FPR1; calcium activity; tested 0.61 to 10,000 nM; read-out: FPR1 Ga16-CHO EC50
# Experimental: CHO-Gα16 cells stably expressing FPR1 or FPR2 were cultured in: Ham's F12 nutrient media, 10% fetal bovine serum, 1% PSA (penicillin, streptomycin, amphotericin B antiobiotic/antimycotic), 400 μg/ml geneticin and 50 μg/ml hygromycin. In general, the day before the experiment, 18,000 cells/well were plated in a 384-well clear bottom poly-D-lysine coated plate. […] Results are expressed as EC50 (nM) and efficacy values.
Measured Attribute: EC50 (nM)

(I) O=C(Nc1ccc(Br)cc1)N[C@H]1CCCC[C@H]1C(=O)O (relative stereo)
(II) COC(=O)C(CNC(=O)Nc1ccc(C(F)(F)F)cc1)CC(C)C (stereo not shown)
(III) CC(C)CC(CNC(=O)Nc1ccc(Br)cc1)C(=O)NCC(=O)O (stereo not shown)
(IV) CC(C)CC(CNC(=O)Nc1ccc(OC(F)(F)F)cc1)C(=O)O (stereo not shown)
(V) CC(C)CC(CNC(=O)Nc1ccc(Br)cc1)C(N)=O (stereo not shown)
Query string: Returns the items ordered by EC50, from maximum to minimum. Present the labels in the sequence the task asks for.
Result string: II, V, IV, III, I
(II: 10400 nM, V: 7090 nM, IV: 1180 nM, III: 156 nM, I: 14 nM)

###

# Tgt: FPR1 (Homo sapiens)
# Sequence (P21462 1-350): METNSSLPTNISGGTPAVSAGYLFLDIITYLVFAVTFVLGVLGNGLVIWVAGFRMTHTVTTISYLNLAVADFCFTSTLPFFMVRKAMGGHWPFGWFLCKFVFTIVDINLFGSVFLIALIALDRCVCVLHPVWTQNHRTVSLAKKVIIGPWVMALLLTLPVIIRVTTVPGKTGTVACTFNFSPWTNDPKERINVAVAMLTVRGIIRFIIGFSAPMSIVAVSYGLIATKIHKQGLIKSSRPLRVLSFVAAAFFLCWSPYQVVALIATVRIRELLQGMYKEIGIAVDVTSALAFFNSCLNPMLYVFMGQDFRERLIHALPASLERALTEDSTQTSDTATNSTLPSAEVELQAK
# Test Summary: Compound-induced calcium activity (FLIPR Tetra) in CHO-Gα16 cells stably expressing FPR1
# Applied Conditions: CHO-Gα16 cells stably expressing FPR1; calcium activity; tested 0.61 to 10,000 nM; read-out: FPR1 Ga16-CHO EC50
# Procedure: CHO-Gα16 cells stably expressing FPR1 or FPR2 were cultured in: Ham's F12 nutrient media, 10% fetal bovine serum, 1% PSA (penicillin, streptomycin, amphotericin B antiobiotic/antimycotic), 400 μg/ml geneticin and 50 μg/ml hygromycin. In general, the day before the experiment, 18,000 cells/well were plated in a 384-well clear bottom poly-D-lysine coated plate. […] Results are expressed as EC50 (nM) and efficacy values.
Measured Attribute: EC50 (nM)

compound="O=C(Nc1ccc(Br)cc1)N[C@@H]1CCCC[C@H]1C(=O)O (relative stereo)" units_of_measure=nM endpoint_value=47

(a) CC(C)CC(CNC(=O)Nc1ccc(Br)cc1)C(=O)NCc1nnn[nH]1 (centres unmarked)
(b) CC(C)CC(CNC(=O)Nc1ccc(C(F)(F)F)cc1)C(=O)O (centres unmarked)
Query string: Of a and b , which one carries the higher reported EC50? Returns: label corresponding to the selected item.
Result string: b
(b: 54 nM, a: 13 nM)
